Where these numbers come from: patent US20210253725A1

Entries and their measured Functional assay Cross-linked by F(ab′)2 fragment IL-8 follow.
Biological target: T1, CD134 expressed on the cell surface of HT1080_OX40 cells (human, UniProt P43489 29-277); note: test concentration or dose not given here
T1 sequence (looked up): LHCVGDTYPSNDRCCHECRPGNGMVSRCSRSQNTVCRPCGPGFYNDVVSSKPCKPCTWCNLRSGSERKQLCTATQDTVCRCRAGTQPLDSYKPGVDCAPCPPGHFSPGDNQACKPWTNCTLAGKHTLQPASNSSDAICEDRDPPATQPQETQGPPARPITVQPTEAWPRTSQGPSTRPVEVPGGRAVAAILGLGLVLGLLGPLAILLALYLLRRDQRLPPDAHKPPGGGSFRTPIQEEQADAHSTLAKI
Assay: cell-based or functional assay
Number only, in abs. corr.; omit the unit.

Take a look at these entries with their results.
1) P018.S.11.A.B04 (antibody, V domains shown, V regions on human Ig constant parts; also called AB134_25) VH: QEQLEESGGDLVKPEGSLTLTCTASGFSFSSAYYMCWVRQAPGKGLEWIACIDAGSSGSTYYASWAKGRFTISKTSSTTVTLQMTSLTAADTATYFCARDGGSTTGYGWLDLWGQGTLVTVSS VL: AVVMTQTASPVSAAVGGTVTINCQASQSIGTNYLSWYQQKPGQPPKLLIYEASNLETGVPSRFKGSGSGTEYSLTISDLESADAATYYCLYSYYSSSSAYTFGGGTEVVVK | 1.66
2) P018.S.12.A.H05 (antibody, V domains shown, V regions on human Ig constant parts; also called AB134_91) VH: QSLEESGGDLVKPGASLTLTCTASGFSFDIDYYMCWVRQAPGKGLEWIACIYAGSSGSTYYASWAKGRFTISKTSSTTVTLQMPSLTAADTATYFCARHYAGYAGDAYATDYYFNLWGRGTLVTVSS VL: DIVMTQTPSSVSATVGDTVTINCQASQSVSNFLAWYQQKPGQPPKPLIYGASNLESGVPSRFRGSGSGTEFTLTISGMKAEDAATYYCQSGYYSATFGAGTKVEIK | 2.19
3) P018.S.04.A.F05 (antibody, V domains shown, V regions on human Ig constant parts; also called AB134_12) VH: QSVEESGGRLVTPGTPLTLTCTVSGIDLSSYTMGWVRQAPGKGLEYIGIIGTSGTTYYSSWAKGRFTISKTSTTVDLKITSPTTEDTATYFCARLGDDYGDFHFNLWGQGTLVTVSS VL: DLVMTQTPASVSEPVGGTVTIKCQASQNIGNYLAWYQQKPGQPPKLLIYAASNLASGVSSRFKGSGSGTEYTLTISDLESADAATYYCQCTYYDSTYFAFGGGTEVVVK | 2.4
4) P018.S.12.A.G03 (antibody, V domains shown, V regions on human Ig constant parts; also called AB134_85) VH: QSLEESGGRLVTPGGSLTLTCTLSGIDLSSNAISWVRQAPGKGLEWIGIIFPGDNIYYATWAKGRFTISKTSTTVDLKMTSLRTADTATYFCARYHADDSVDLWGPGTLVTVSS VL: AYDMTQTPASVSEPVGGTVTIKCQASQSINGWLSWYQQKPGQRPRLLIYRASDLAPGVSSRFKGSGSGTQFTLTISDVESADAATYYCHLGDIYSNIDYVFGGGTEVVVK | 2.1
5) P018.S.04.A.E06 (antibody, V domains shown, V regions on human Ig constant parts; also called AB134_11) VH: QSVEESGGRLVTPGTPLTLTCTVSGFSLSGYDMSWVRQAPGKGLEWIGYIYAGSTYYANWAKGRFTISKTSTTVDLKMTSPTTEDTATYFCTRVGAGYSGVWAYFNLWGPGTLVTVSS VL: AQVLTQTPSSVSAAVGGTVTINCQSSQSVDSDNYLAWYQQKPGQPPKLLIYDASKLASGVPSRFTGSGSGTQFTLTISGVQSDDAATYYCQGTYGNIGWYFAFGGGTEVVVK | 2.38
6) P018.S.04.A.E01 (antibody, V domains shown, V regions on human Ig constant parts; also called AB134_10) VH: QSVEESGGRLVTPGTPLTLTCTASGFSLSSSWMSWVRQAPGKGLEFIGFINTGGRAFYATWASGRFTISRTSTKVDLEITSPTSEDTATYFCVRGAAGYPEYDDGDLWGQGTLVTVSS VL: AQVLTQTLSPVSAAVGGTVTINCQSSPSVYHNNWLSWFQKKPGQPPKLLIYEASKLASGVPPRFSGSGSGTQFTLTISGVQSDDAATYYCAGSFSDNIYTFGGGTAMVVK | 1.41
7) P018.S.11.A.D03 (antibody, V domains shown, V regions on human Ig constant parts; also called AB134_30) VH: QEQLKETGGGLVQPGGSLTLSCKASGFDFSSGYMSWVRQAPGKGLEWIGYIDPVFGSTYYASWVNGRFAISSHNAQNTLYLQLNSLTAADTATYFCARDLRAFYSGWGGINLWGPGTLVTVSS VL: AAVLTQTPSPVSAAVGGTVTIKCQSSQIVVNNNFLSWYQQKPGQPPKLLIYDASNLASGVPDRFSGSGSGTQFTLTISGVQSDDAATYYCLGGYDDDAENAFGGGTEVVVQ | 1.86
8) P018.S.11.A.A04 (antibody, V domains shown, V regions on human Ig constant parts; also called AB134_21) VH: QSVEESGGRLVTPGTPLTLTCTVSGFSLSSYAMGWVRQAPGKGLEYIGVISTSANTYYATWAKGRFTISKTSTTVDLRITSPTTEDTATYFCARVVGLYDSYGDVDATYDAFDPWGPGTLVTVSS VL: AQVLTQTASPVSAAVGDTVTINCQSSQSVYNNNLLSWYQQKPGQPPKLLVYDASNLASGVPHRFSGSGSGTQFTLTISGVQSDDAATYYCLGGYDDDADIYAFGGGTEVVVK | 1.99
9) P018.S.12.A.B01 (antibody, V domains shown, V regions on human Ig constant parts; also called AB134_56) VH: QEQLVESGGGLVQPEGSLTLTCKASGFDFSYNSMCWVRQAPGKGLEWITCIYNGDGSTWYASWAKGRFTISKTSSTTVTLQMTSLTAADTATYFCTRDFGLWGPGTLVTVSS VL: ALVMTQTPSSTSEPVGGTVTINCQASESVANHKQLSWYQQKPGQPPKVLIYYASTLASGVPSRFKGSGSGTQFTLTISDVVSDDAATYYCSGYKSISTDGNAFGGGTEVVVK | 2.11

Next binder, Functional assay Cross-linked by F(ab′)2 fragment IL-8 to be filled in.
Enquiry: Given the binder P018.S.12.A.C06 (antibody, V domains shown, V regions on human Ig constant parts; also called AB134_66) VH: QSVEESGGRLVKPDETLTLICTVSGIDLSINVVGWVRQAPGEGLEWIGDISSHGDTIYATWAKGRFTISKTSTTVDLKMTSLTASDTATYFCARYVGDGYYDLWGPGTLVTVSS VL: AYDMTQTPASVSAAVGGTVTINCQASQSISNLLAWYQQKPGQRPKLLIYDTSKLASGVPSRFKGSGSGTQFTLTISDLESADAATYYCQQSYSSSNIANLFGGGTEVVVK , write its reported Functional assay Cross-linked by F(ab′)2 fragment IL-8.
Return: 2.1
